System: ESCHERICHIA COLI H560
Method Description: In vitro antibacterial activity, MIC, BHI agar dilution
Assay type: cell-based
Measurement Context: E. coli H560, unit assumed
Assay Metric: MIC (µg/mL)
Report as a plain number; the unit µg/mL is understood.

Please review the entries below; each comes with its answer.
INSERT INTO results (compound, measured) VALUES
  ('CCC1OC(=O)C(C)C(=O)C(C)C(OC2OC(C)CC(N(C)C)C2O)C(C)(OC)CC(C)C2=NCC(COCc3ccccc3F)N3C(=O)OC1(C)C3C2C (centres unmarked) [Example 73]', 12.5),
  ('CCC1OC(=O)C(C)C(=O)C(C)C(OC2OC(C)CC(N(C)C)C2O)C(C)(OC)CC(C)C2=NC(CN(C)C)CN3C(=O)OC1(C)C3C2C (centres unmarked) [Example 97]', 25),
  ('CCC1OC(=O)C(C)C(=O)C(C)C(OC2OC(C)CC(N(C)C)C2O)C(C)(OC)CC(C)C2=NCC(C)(CN(C)C)N3C(=O)OC1(C)C3C2C (centres unmarked) [Example 136]', 100),
  ('CC[C@H]1OC(=O)[C@H](C)C(=O)[C@H](C)[C@@H](O[C@@H]2O[C@H](C)C[C@H](N(C)C)[C@H]2O)[C@](C)(OC)C[C@@H](C)C2=NC3CCCC3N3C(=O)O[C@@]1(C)[C@H]3[C@H]2C (some centres unmarked) [Example 107]', 50);

Query :: Form field: MIC recorded for CC[C@H]1OC(=O)[C@H](C)C(=O)[C@H](C)[C@@H](O[C@@H]2O[C@H](C)C[C@H](N(C)C)[C@H]2O)[C@](C)(OC)C[C@@H](C)C2=NC3CN(CCc4ccc(NC(C)=O)cc4)CC3N3C(=O)O[C@@]1(C)[C@H]3[C@H]2C (some centres unmarked) [Example 122] with ESCHERICHIA COLI H560 (enter value)
Result :: 50

Query :: Also CC[C@H]1OC(=O)[C@H](C)C(=O)[C@H](C)[C@@H](O[C@@H]2O[C@H](C)C[C@H](N(C)C)[C@H]2O)[C@](C)(OC)C[C@@H](C)C2=N[C@@H]3CN(Cc4ccncc4)C[C@@H]3N3C(=O)O[C@@]1(C)[C@H]3[C@H]2C [Example 25] ?
Result :: 100

Query :: Also CC[C@H]1OC(=O)[C@H](C)C(=O)[C@H](C)[C@@H](O[C@@H]2O[C@H](C)C[C@H](N(C)C)[C@H]2O)[C@](C)(OC)C[C@@H](C)C2=N[C@H](COCc3ccccc3Br)CN3C(=O)O[C@@]1(C)[C@H]3[C@H]2C [Example 104] ?
Result :: 50

Query :: Also CC[C@H]1OC(=O)[C@H](C)C(=O)[C@H](C)[C@@H](O[C@@H]2O[C@H](C)C[C@H](N(C)C)[C@H]2O)[C@](C)(OC)C[C@@H](C)C2=NC3CN(C(C)c4ccccc4)CC3N3C(=O)O[C@@]1(C)[C@H]3[C@H]2C (some centres unmarked) [Example 113] ?
Result :: 50

Query :: Also CC[C@H]1OC(=O)[C@H](C)C(=O)[C@H](C)[C@@H](O[C@@H]2O[C@H](C)C[C@H](N(C)C)[C@H]2O)[C@](C)(OC)C[C@@H](C)C2=N[C@@H]3CN(CCc4ccccc4)C[C@@H]3N3C(=O)O[C@@]1(C)[C@H]3[C@H]2C [Example 23] ?
Result :: 6.2
